Biological target: IRAK4 (Homo sapiens, UniProt Q9NWZ3)
Construct: Degradation of IRAK4 in OCI-LY10 was quantitatively measured using Meso Scale Discovery technology; endogenous in cells; host or cells: OCI-LY10
Sequence (Q9NWZ3 whole entry): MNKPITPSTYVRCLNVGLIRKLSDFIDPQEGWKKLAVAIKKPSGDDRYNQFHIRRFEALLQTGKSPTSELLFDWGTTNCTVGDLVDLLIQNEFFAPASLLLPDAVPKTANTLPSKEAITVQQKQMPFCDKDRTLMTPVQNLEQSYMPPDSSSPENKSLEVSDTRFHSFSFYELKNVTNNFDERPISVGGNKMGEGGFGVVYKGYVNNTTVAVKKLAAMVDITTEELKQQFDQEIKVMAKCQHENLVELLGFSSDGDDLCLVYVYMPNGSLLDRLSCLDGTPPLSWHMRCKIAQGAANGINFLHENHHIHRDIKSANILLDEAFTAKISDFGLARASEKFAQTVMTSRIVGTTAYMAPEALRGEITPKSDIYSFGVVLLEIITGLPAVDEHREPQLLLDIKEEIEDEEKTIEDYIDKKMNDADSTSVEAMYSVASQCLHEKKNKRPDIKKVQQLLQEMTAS
Assay: IRAK4 MSD Degradation in OCI-LY10
Type: cell-based
Details: OCI-LY10 cells, 24 hrs incubation, MSD; read-out: IRAK4 degradation in OCI-LY10 at 24 hrs: DC50
Item-by-item account of DC50

# molecule, subject of test, metric, reported measurement
data = [
    ("CN(C[C@H]1CC[C@H](n2cc(NC(=O)c3cnn4ccc(N5CCCCCC5)nc34)c(C(F)F)n2)CC1)C1CCN(c2cccc3c2n(C)c(=O)n3C2CCC(=O)NC2=O)CC1(F)F (some centres unmarked)", "IRAK4 (Homo sapiens, UniProt Q9NWZ3)", "DC50", "> 200 nM"),
]

What the record says about COc1cc2nn([C@H]3CC[C@H](CN4CCC(c5cccc6c5n(C)c(=O)n6C5CCC(=O)NC5=O)C(F)C4)CC3)cc2cc1NC(=O)c1cccc(C(F)(F)F)n1 (some centres unmarked) : DC50 is < 10 nM

What the record says about C[C@H]1CN(C[C@H]2CC[C@H](n3cc(NC(=O)c4cnn5ccc(N6C[C@H]7C[C@@H]6CO7)nc45)c(C(F)F)n3)CC2)CC[C@@H]1OCC#Cc1cccc2c1n(C)c(=O)n2C1CCC(=O)N(C)C1=O (some centres unmarked) : DC50 is > 200 nM

What the record says about Cn1c(=O)n(C2CCC(=O)NC2=O)c2cccc(C#CCN3CCN(C[C@H]4CC[C@H](n5cc(NC(=O)c6cnn7ccc(N8CCCCCC8)nc67)c(C(F)F)n5)CC4)CC3)c21 (some centres unmarked) : DC50 is 10 to 100 nM
